# tested on: E. coli DHFR A26T-L28R mutant (Escherichia coli, UniProt P0ABQ4, A26T/L28R)
# assay text: biochemical
value type: Ki (nM)

[
  {
    "mol smiles": "CCOc1cc(C=C2C(=O)NC(=O)NC2=O)ccc1OCC(=O)O",
    "value type": "Ki",
    "unit descriptor": "nM",
    "recorded value": 2040
  },
  {
    "mol smiles": "COc1ccc([C@@H]2CC(c3c(O)[nH]c(=O)n(C)c3=O)=NN2)cc1OC",
    "value type": "Ki",
    "unit descriptor": "nM",
    "recorded value": 610
  }
]

----------
# System: WT E. coli strain
# assay text: microbe, parasite or virus in culture
# test settings: Escherichia coli, read-out: Bacterial growth inhibition IC50
pIC50: −log10 of the molar value.
value type: pIC50

[
  {
    "compound": "COc1cc(Cc2cnc(N)nc2N)cc(OC)c1OC [TMP, trimethoprim, reference compound]",
    "tested on": "WT E. coli strain",
    "recorded value": 5.89
  }
]

----------
# tested on: E. coli DHFR P21L mutant (Escherichia coli, UniProt P0ABQ4, P21L)
# assay text: biochemical
# test settings: Ki value, E. coli P21L DHFR; Ki converted from IC50
pKi: −log10 of the molar value.
Measured pKi of individual entries

[
  {
    "mol smiles": "COc1cc([C@H]2CC(=O)Nc3nc(N)[nH]c(=O)c32)ccc1O",
    "tested on": "E. coli DHFR P21L mutant (Escherichia coli, UniProt P0ABQ4, P21L)",
    "pKi": 5.49
  },
  {
    "mol smiles": "Cn1c(=O)[nH]c(O)c(C2=NN[C@H](c3cccc4ccccc34)C2)c1=O",
    "tested on": "E. coli DHFR P21L mutant (Escherichia coli, UniProt P0ABQ4, P21L)",
    "pKi": 5.60
  },
  {
    "mol smiles": "COc1ccc([C@@H]2CC(c3c(O)[nH]c(=O)n(C)c3=O)=NN2)cc1OC",
    "tested on": "E. coli DHFR P21L mutant (Escherichia coli, UniProt P0ABQ4, P21L)",
    "pKi": 5.85
  },
  {
    "mol smiles": "CCOc1cc(C=C2C(=O)NC(=O)NC2=O)ccc1OCC(=O)O",
    "tested on": "E. coli DHFR P21L mutant (Escherichia coli, UniProt P0ABQ4, P21L)",
    "pKi": 5.43
  }
]

----------
# System: WT E. coli strain
# assay text: microbe, parasite or virus in culture
# test settings: Escherichia coli, read-out: Bacterial growth inhibition IC50, WT (naive) E. coli strain, M9 medium, 37°C
pIC50: −log10 of the molar value.
Classification field: Condition met = pIC50 at or over 4; Condition not met = pIC50 under 4.

[
  {
    "compound": "COc1cc([C@@H]2CC(c3c(O)[nH]c(=O)n(C)c3=O)=NN2)cc(OC)c1OC [CD15-6]",
    "class": "Condition not met"
  },
  {
    "compound": "C[C@H](Oc1ccc(C=C2C(=O)NC(=O)NC2=O)cc1)C(=O)O [CD17-3]",
    "class": "Condition not met"
  },
  {
    "compound": "CCOc1cc(C=C2C(=O)NC(=O)NC2=O)ccc1OCC(=O)O [CD17]",
    "class": "Condition not met"
  },
  {
    "compound": "Cn1c(=O)[nH]c(O)c(C2=NN[C@H](c3cccc4ccccc34)C2)c1=O [CD15-3]",
    "class": "Condition met"
  },
  {
    "compound": "COc1ccc([C@@H]2CC(c3c(O)[nH]c(=O)n(C)c3=O)=NN2)cc1OC [CD15]",
    "class": "Condition not met"
  },
  {
    "compound": "Cn1c(=O)[nH]c(O)c(C2=NN[C@H](c3ccc4c(c3)OCO4)C2)c1=O [CD15-4]",
    "class": "Condition not met"
  }
]
